Target: T1, human CD30 (commercial, conjugated to digoxigenin) (human, UniProt P28908 19-379, limits assumed, conjugated to digoxigenin (DIG))
T1 sequence (looked up): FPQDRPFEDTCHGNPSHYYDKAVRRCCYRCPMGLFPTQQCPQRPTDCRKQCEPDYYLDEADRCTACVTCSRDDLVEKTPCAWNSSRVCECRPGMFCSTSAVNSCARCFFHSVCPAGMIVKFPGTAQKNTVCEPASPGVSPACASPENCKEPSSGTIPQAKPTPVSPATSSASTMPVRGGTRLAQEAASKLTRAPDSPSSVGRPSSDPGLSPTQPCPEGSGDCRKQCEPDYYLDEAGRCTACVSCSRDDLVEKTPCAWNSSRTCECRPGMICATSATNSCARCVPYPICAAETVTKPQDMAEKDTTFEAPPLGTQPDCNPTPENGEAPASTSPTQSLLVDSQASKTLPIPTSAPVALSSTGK
Assay: AlphaScreen competition vs biotin-WT AC10
Experimental Readout: Fold IC50 vs WT (fold)
The reply should contain only the number, in fold.

Record excerpt, results attached:
Measured Fold IC50 vs WT, AC10 H1/L1 full length antibody (antibody, V domains shown) VH: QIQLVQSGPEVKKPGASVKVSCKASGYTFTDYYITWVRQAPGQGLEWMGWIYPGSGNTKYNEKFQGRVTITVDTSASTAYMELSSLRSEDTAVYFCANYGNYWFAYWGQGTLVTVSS VL: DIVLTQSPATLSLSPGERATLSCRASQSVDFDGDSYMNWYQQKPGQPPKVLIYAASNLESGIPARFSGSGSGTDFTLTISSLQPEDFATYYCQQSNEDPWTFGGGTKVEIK : 0.11

Measured Fold IC50 vs WT, AC10 H2/L0 full length antibody (antibody, V domains shown) VH: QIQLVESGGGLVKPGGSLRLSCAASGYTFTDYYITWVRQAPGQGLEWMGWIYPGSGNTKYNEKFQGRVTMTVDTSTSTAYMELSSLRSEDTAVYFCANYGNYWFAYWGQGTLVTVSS VL: DIVLTQSPASLAVSLGQRATISCKASQSVDFDGDSYMNWYQQKPGQPPKVLIYAASNLESGIPARFSGSGSGTDFTLNIHPVEEEDAATYYCQQSNEDPWTFGGGTKLEIK : 0.16

Continuing:
Measured Fold IC50 vs WT, AC10 H2/L3 full length antibody (antibody, V domains shown) VH: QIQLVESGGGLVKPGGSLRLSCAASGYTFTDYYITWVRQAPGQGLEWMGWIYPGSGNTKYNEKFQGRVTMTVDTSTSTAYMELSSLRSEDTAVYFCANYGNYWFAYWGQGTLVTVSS VL: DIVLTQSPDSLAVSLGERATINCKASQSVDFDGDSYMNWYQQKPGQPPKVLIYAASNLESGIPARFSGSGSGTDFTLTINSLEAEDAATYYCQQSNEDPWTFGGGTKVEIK : 0.12
